Molecular target: Recombinant Cat D (Homo sapiens (Human), UniProt P07339)
Sequence (P07339 65-412): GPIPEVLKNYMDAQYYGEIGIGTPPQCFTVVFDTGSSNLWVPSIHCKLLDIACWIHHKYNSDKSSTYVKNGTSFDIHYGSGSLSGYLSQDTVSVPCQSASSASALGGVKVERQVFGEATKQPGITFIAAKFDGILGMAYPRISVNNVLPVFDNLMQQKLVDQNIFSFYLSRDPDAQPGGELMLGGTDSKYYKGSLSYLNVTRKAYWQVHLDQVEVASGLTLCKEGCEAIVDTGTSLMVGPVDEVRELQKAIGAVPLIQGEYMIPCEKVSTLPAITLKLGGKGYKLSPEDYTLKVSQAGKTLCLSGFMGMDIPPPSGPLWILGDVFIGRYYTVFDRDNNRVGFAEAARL
Experiment: In vitro enzymatic Cathepsin D (Cat D) FRET assay
Format: biochemical
Details: read-out: IC50 IP (μM) CatD
Protocol: In Vitro Enzymatic Cathepsin D (Cat D) FRET (Fluorescence Resonance Energy Transfer) Assay Recombinant Cat D was expressed in CHO cells. The assay buffer for CathepsinD is 0.05 M citrate pH 3.5, 10% DMSO final, 5 mM CHAPS. […] The FRET assay is terminated with by addition of Tris buffer, which raises the pH to neutrality, and the fluorescence is determined. […] Proteolytic cleavage of the FRET substrate releases quenching of fluorescence (Cat D excitation 500 nm and emission 580 nm).
Property label: IC50 (µM)

{"Molecule": "C#CCOc1cnc(C(=O)Nc2cc(F)c(F)c([C@@]3(C)N=C(N)S[C@@]4(CN)C[C@H]43)c2)cn1 [Example 981]", "IC50 / µM": 106}
{"Molecule": "CN(C)C(=O)/C=C/[C@]12C[C@H]1[C@@](CF)(c1cc(Nc3ncnc4cc(OCc5ncco5)cnc34)ccc1F)N=C(N)S2 [Example 775]", "IC50 / µM": 22.8}

[1] C#CCOc1cnc(C(=O)Nc2ccc(F)c([C@@]3(CF)N=C(N)S[C@@]4(c5c[nH]nn5)C[C@@H]34)c2)cn1 [Example 959]
[2] COC[C@]12C[C@H]1[C@@](C)(c1cc(NC(=O)c3cnc(OCc4nc(C)no4)cn3)cc(C)c1F)N=C(N)S2 [Example 1044]
Query: 1 or 2 : whose IC50 is greater? Write down the label of the entry you select.
Response: 2
(2: 291 µM, 1: 44.1 µM)

[A] COC[C@]12C[C@H]1[C@@](C)(c1cc(NC(=O)c3ncc(OCC(F)(F)F)cc3C)cc(F)c1F)N=C(N)S2 [Example 675]
[B] CC(C)(CF)NC(=O)[C@]12C[C@H]1[C@@](C)(c1cc(NC(=O)c3cnc(OCC(F)(F)F)cn3)ccc1F)N=C(N)S2 [Example 983]
Query: A or B : whose IC50 is greater? Write down the label of the entry you select.
Response: A
(A: 1010 µM, B: 172 µM)

[P] C[C@]1(c2cc(NC(=O)c3ccc(Cl)cn3)cc(F)c2F)N=C(N)S[C@@]2(S(C)(=O)=O)C[C@H]21 [Example 742]
[Q] Cc1cnc(COc2cnc3c(Nc4cc(F)c(F)c([C@@]5(C)N=C(N)S[C@@]6(C(F)F)C[C@@H]56)c4)nccc3n2)o1 [Example 888]
[R] N#CC[C@]12C[C@H]1[C@@](CF)(c1cc(Nc3nccc4cc(C#N)cnc34)ccc1F)N=C(N)S2 [Example 719]
[S] C[C@]1(c2cc(Nc3nccc4cc(C#N)cnc34)cnc2F)N=C(N)S[C@@]2(C(F)F)C[C@@H]12 [Example 657]
[T] C[C@]1(c2cc(Nc3ncnc4cc(OCc5ncco5)cnc34)cc(F)c2F)N=C(N)S[C@@]2(CF)C[C@H]21 [Example 808]
Query: Thanks in advance: please rank these 5 entries by IC50, highest to lowest. // list labels; follow requested order
Response: R, P, S, T, Q
(R: 1490 µM, P: 846 µM, S: 306 µM, T: 127 µM, Q: 71.9 µM)

[P] C#C[C@H](C)Oc1cnc2c(Nc3cc(F)c(F)c([C@@]4(C)N=C(N)S[C@@]5(C#N)C[C@H]54)c3)nccc2n1 [Example 931]
[Q] C[C@]1(c2cc(Nc3nccc4nc(OCc5ncco5)cnc34)cc(F)c2F)N=C(N)S[C@@]2(CF)C[C@H]21 [Example 802]
Query: P or Q : whose IC50 is greater? Write down the label of the entry you select.
Response: P
